Reference source for all entries: paper doi:10.1101/2021.10.07.463234v2

- System: SARS-CoV-2 Mac1 (Severe acute respiratory syndrome coronavirus 2, UniProt P0DTD1)
- Assay method text: biochemical
- Test conditions: read-out: %inhibition
Where a name gives a salt, the structure may show the parent alone.
Assay endpoint: inhibition at 100 µM (%)
Could you give me the number in %? Just the number is fine.

Compound	inhibition at 100 µM [%]
NS(=O)(=O)c1ccc(C(=O)O)cc1 [Carzenide]	0
CN(C)CCCN1c2ccccc2Sc2ccccc21 [Promazine hydrochloride]	0
Cc1ccc2c(Cl)cc(Cl)c(O)c2n1	1.48
C#C[C@]1(O)C=C[C@H]2[C@@H]3CCC4=CC(=O)CC[C@@H]4[C@H]3CC[C@@]21CC	0
CO/N=C(\C(=O)N[C@@H]1C(=O)N2C(C(=O)O)=CCS[C@H]12)c1csc(N)n1	12.3

(Q) For the compound shown here, `C#C[C@]1(O)CC[C@H]2[C@@H]3CCC4=CCCC[C@@H]4[C@H]3C(=C)C[C@@]21CC` , give the reported inhibition at 100 µM.
(A) 0

(Q) For the compound shown here, `CCCSc1nc(N[C@@H]2C[C@H]2c2ccc(F)c(F)c2)c2nnn([C@@H]3C[C@H](OCCO)[C@@H](O)[C@H]3O)c2n1` , give the reported inhibition at 100 µM.
(A) 6.12

(Q) For the compound shown here, `Nc1ncn([C@@H]2O[C@H](CO)[C@@H](O)[C@H]2O)c(=O)n1` , give the reported inhibition at 100 µM.
(A) 32.2

(Q) For the compound shown here, CC1(C)O[C@@H]2C[C@H]3[C@@H]4CCC5=CC(=O)CC[C@]5(C)[C@@]4(F)[C@@H](O)C[C@]3(C)[C@]2(C(=O)CCl)O1 [Halcinonide] , give the reported inhibition at 100 µM.
(A) 25.9

(Q) For the compound shown here, `CC(=O)OCC(=O)[C@@]12N=C(C)O[C@@H]1C[C@H]1[C@@H]3CCC4=CC(=O)C=C[C@]4(C)[C@H]3[C@@H](O)C[C@@]12C` , give the reported inhibition at 100 µM.
(A) 37.4

(Q) For the compound shown here, `CCOC(=O)c1ccc(C#Cc2ccc3c(c2)C(C)(C)CCS3)nc1` , give the reported inhibition at 100 µM.
(A) 0

(Q) For the compound shown here, CN(C)CCOC(c1ccc(Cl)cc1)c1ccccn1 (stereo not shown) [CarbinoxaMine Maleate] , give the reported inhibition at 100 µM.
(A) 0

(Q) For the compound shown here, CC1(C)S[C@@H]2[C@H](NC(=O)Cc3ccccc3)C(=O)N2[C@H]1C(=O)O [Penicillin G Sodium] , give the reported inhibition at 100 µM.
(A) 5.64

(Q) For the compound shown here, C=C1c2cccc(O)c2C(=O)C2=C(O)[C@]3(O)C(=O)C(C(N)=O)=C(O)[C@@H](N(C)C)[C@@H]3[C@@H](O)[C@H]12 [Methacycline HCl] , give the reported inhibition at 100 µM.
(A) 0

(Q) For the compound shown here, CCCCN(CCCC)CC(O)c1cc(Cl)cc2c1-c1ccc(Cl)cc1/C2=C/c1ccc(Cl)cc1 (stereo not shown) , give the reported inhibition at 100 µM.
(A) 0

(Q) For the compound shown here, CN(C)CCCN1c2ccccc2CCc2ccccc21 [Imipramine HCl] , give the reported inhibition at 100 µM.
(A) 2.2
